- System: BGC-823
- EXPERIMENT NOTES: Antitumor activity against human BGC823 cells assessed as growth inhibition at 10 uM after 24 hrs by relative to control
- Type: functional
- CONDITION SUMMARY: BGC-823, 24 h
Binary call on inhibition at 10 µM: Criterion met from 30% upward, Criterion not met beneath that.

1) CCCCOP(=O)(OCCCC)C(NC(=S)N[C@H](Cc1ccccc1)C(=O)NCc1ccc(F)cc1)c1ccccc1 (stereo not given in full) : Criterion met
2) CC(C)OP(=O)(OC(C)C)C(NC(=S)N[C@H](Cc1ccccc1)C(=O)NCc1ccccc1F)c1ccccc1 (stereo not given in full) : Criterion met
3) COc1cccc2c1C(=O)c1c(O)c3c(c(O)c1C2=O)C[C@@](O)(C(=O)CO)C[C@@H]3O[C@H]1C[C@H](N)[C@H](O)[C@H](C)O1 [DOXORUBICIN] : Criterion met
4) CC(C)OP(=O)(OC(C)C)C(NC(=S)N[C@@H](Cc1ccccc1)C(=O)NCc1ccc(F)cc1)c1ccccc1 (stereo not given in full) : Criterion met
5) CCCOP(=O)(OCCC)C(NC(=S)N[C@@H](Cc1ccccc1)C(=O)NCc1ccc(F)cc1)c1ccccc1 (stereo not given in full) : Criterion not met
6) CCCCOP(=O)(OCCCC)C(NC(=S)N[C@H](Cc1ccccc1)C(=O)NCc1ccccc1)c1ccccc1 (stereo not given in full) : Criterion not met
7) CCCOP(=O)(OCCC)C(NC(=S)N[C@@H](Cc1ccccc1)C(=O)NCc1ccccc1F)c1ccccc1 (stereo not given in full) : Criterion not met
8) CCCOP(=O)(OCCC)C(NC(=S)N[C@H](Cc1ccccc1)C(=O)NCc1ccccc1)c1ccccc1 (stereo not given in full) : Criterion not met
9) CC(C)OP(=O)(OC(C)C)C(NC(=S)N[C@H](Cc1ccccc1)C(=O)NCc1ccc(F)cc1)c1ccccc1 (stereo not given in full) : Criterion not met
10) CCOP(=O)(OCC)C(NC(=S)N[C@H](Cc1ccccc1)C(=O)NCc1ccc(F)cc1)c1ccccc1 (stereo not given in full) : Criterion met
11) CC(C)OP(=O)(OC(C)C)C(NC(=S)N[C@@H](Cc1ccccc1)C(=O)NCc1ccccc1)c1ccccc1 (stereo not given in full) : Criterion not met
12) CCCOP(=O)(OCCC)C(NC(=S)N[C@H](Cc1ccccc1)C(=O)NCc1ccccc1F)c1ccccc1 (stereo not given in full) : Criterion not met
13) CCCOP(=O)(OCCC)C(NC(=S)N[C@H](Cc1ccccc1)C(=O)NCc1ccc(F)cc1)c1ccccc1 (stereo not given in full) : Criterion met
14) CCCCOP(=O)(OCCCC)C(NC(=S)N[C@@H](Cc1ccccc1)C(=O)NCc1ccccc1)c1ccccc1 (stereo not given in full) : Criterion not met
15) CC(C)OP(=O)(OC(C)C)C(NC(=S)N[C@H](Cc1ccccc1)C(=O)NCc1ccccc1)c1ccccc1 (stereo not given in full) : Criterion not met
16) CCCOP(=O)(OCCC)C(NC(=S)N[C@@H](Cc1ccccc1)C(=O)NCc1ccccc1)c1ccccc1 (stereo not given in full) : Criterion met
17) CC(C)OP(=O)(OC(C)C)C(NC(=S)N[C@@H](Cc1ccccc1)C(=O)NCc1ccccc1F)c1ccccc1 (stereo not given in full) : Criterion met
18) CCCCOP(=O)(OCCCC)C(NC(=S)N[C@@H](Cc1ccccc1)C(=O)NCc1ccc(F)cc1)c1ccccc1 (stereo not given in full) : Criterion not met
19) CCOP(=O)(OCC)C(NC(=S)N[C@@H](Cc1ccccc1)C(=O)NCc1ccc(F)cc1)c1ccccc1 (stereo not given in full) : Criterion not met
20) CCOP(=O)(OCC)C(NC(=S)N[C@@H](Cc1ccccc1)C(=O)NCc1ccccc1)c1ccccc1 (stereo not given in full) : Criterion not met
21) CCOP(=O)(OCC)C(NC(=S)N[C@H](Cc1ccccc1)C(=O)NCc1ccccc1)c1ccccc1 (stereo not given in full) : Criterion met
